Test: chemical genetic growth profiling, strain panel (AID 1159580);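 also: tested at 20 µM; growth read once vehicle control cultures reached saturation at 30 °C; 1 = growth at the plate median or of vehicle wells; lower values mean less growth of the strain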
Settings: S. cerevisiae deletion strains, growth OD, locus YDR226W, strain ADK1, active compounds read low
Hit rate of the full screen: of about 5,500 compounds, about 2,000 (36%) were called active. Inconclusive results (about 18%) are left out. Some of the results follow.
Attribute: normalized growth
observationType: normalized growth

[[record]]
samplesmiles = "Cc1nc(-c2ccc(S(=O)(=O)Nc3ccc(Br)cc3Cl)s2)cs1"
result = "0.943 (inactive)"

[[record]]
samplesmiles = "CC1(C)OC(=O)C(=Cc2cccn2-c2ccc(C(F)(F)F)cc2)C(=O)O1"
result = "1.03 (inactive)"

[[record]]
samplesmiles = "Cc1onc(-c2c(F)cccc2Cl)c1C(=O)ON=C1C2CC3CC(C2)CC1C3"
result = "1.06 [resistant] (active)"

[[record]]
samplesmiles = "O=C(Nc1ccc(OC(F)(F)F)cc1)N1CCN(c2nc(-c3ccccc3)ns2)CC1"
result = "0.995 (inactive)"

[[record]]
samplesmiles = "Cc1ccc(NNC(=O)c2c(C)noc2C)cc1Cl"
result = "0.978 (inactive)"

[[record]]
samplesmiles = "O=[N+]([O-])c1ccc(Sc2ssc(=S)c2-c2ccccc2)nc1"
result = "1.01 (inactive)"

[[record]]
samplesmiles = "Cc1onc(-c2c(Cl)cccc2Cl)c1C(=O)NNc1c(Cl)cccc1Cl"
result = "0.982 (inactive)"

[[record]]
samplesmiles = "FC(F)(F)c1ccnc(N2CCCN(C(=S)Nc3ccc(Cl)cc3Cl)CC2)n1"
result = "0.982 (inactive)"

[[record]]
samplesmiles = "Cc1onc(-c2c(F)cccc2Cl)c1C(=O)NNc1cc(Cl)cc(Cl)c1"
result = "0.991 (inactive)"

[[record]]
samplesmiles = "Cc1ccc(NS(=O)(=O)c2ccc(-c3csc(C)n3)s2)c(C)c1"
result = "0.986 (inactive)"


====

Test: chemical genetic growth profiling, strain panel (AID 1159580);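 also: tested at 20 µM; growth read once vehicle control cultures reached saturation at 30 °C; 1 = growth at the plate median or of vehicle wells; lower values mean less growth of the strain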
Conditions: S. cerevisiae deletion strains, growth OD, locus YHR205W, strain SCH9, active compounds read low
The campaign covered roughly 5,500 compounds. About 2,000 (36%) were called active. Inconclusive results (about 18%) are left out. The list shows a part of the results.
Attribute: normalized growth
observationType: normalized growth

[[record]]
compound = "Cc1ccc(NC(=O)c2ccccc2N=Cc2cc(Cl)cc(Cl)c2O)c(N=Cc2cc(Cl)cc(Cl)c2O)c1"
numericresult = 0.166

[[record]]
compound = "Cc1c(-c2ccnn2C(=O)c2ccco2)cnn1-c1ccccc1"
numericresult = 0.909

[[record]]
compound = "CCc1ccn2cc(Nc3ccccc3Cl)nc2c1"
numericresult = 0.959

[[record]]
compound = "OC(=Cc1nc2ccccc2nc1C=C(O)c1ccc(Cl)cc1)c1ccc(Cl)cc1"
numericresult = 0.882

[[record]]
compound = "O=C(Nc1ccc(Cl)cc1)OCCSc1nc2ccccc2s1"
numericresult = 0.695

[[record]]
compound = "N#CC(C#N)=Cc1ccc(-c2ccccc2C(F)(F)F)o1"
numericresult = 0.784

[[record]]
compound = "FC(F)(F)c1cccc(-n2c(CSCc3cccc4ccccc34)n[nH]c2=S)c1"
numericresult = 1.01

[[record]]
compound = "OC(CN1CCN(c2nc3ccc(Cl)cc3s2)CC1)Cn1ccc2ccccc21 (stereo unspecified)"
numericresult = 0.97

[[record]]
compound = "Cc1ccc(NS(=O)(=O)c2ccc(Cl)cc2)c(N=Cc2cc(Cl)cc(Cl)c2O)c1"
numericresult = 0.154

[[record]]
compound = "CC1(C)OC(=O)C(=Cc2cccn2-c2ccc(C(F)(F)F)cc2)C(=O)O1"
numericresult = 0.775

[[record]]
compound = "S=c1[nH]nc(Nc2ccc(I)cc2)s1"
numericresult = 0.821


====

Test: chemical genetic growth profiling, strain panel (AID 1159580);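 also: tested at 20 µM; growth read once vehicle control cultures reached saturation at 30 °C; 1 = growth at the plate median or of vehicle wells; lower values mean less growth of the strain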
Details: S. cerevisiae deletion strains, growth OD, locus YOR106W, strain vam3, active compounds read low
Screen size: about 5,500 compounds; about 2,000 (36%) were called active. Inconclusive results (about 18%) are left out. This is one part of the list.
# if measured normalized growth < 1: Satisfied  # else: Not satisfied

[[record]]
compound = "C#CCCCCCCCCCCCC(=O)CC(O)COC(C)=O (stereo unspecified)"
classification = "Satisfied"

[[record]]
compound = "CCCCOC(=O)c1ccccc1C(=O)OCCCC"
classification = "Satisfied"

[[record]]
compound = "O=C1OC(c2ccc(O)cc2)(c2ccc(O)cc2)c2ccccc21"
classification = "Satisfied"

[[record]]
compound = "O=C1[C@H](CCC(O)c2ccc(F)cc2)[C@@H](c2ccc(O)cc2)N1c1ccc(F)cc1 (stereo partly specified)"
classification = "Satisfied"

[[record]]
compound = "COc1ccc2c(c1)O[C@H]1c3ccc(OC)cc3OC[C@@H]21"
classification = "Not satisfied"

[[record]]
compound = "CCCCCCOc1ccccc1C(N)=O"
classification = "Satisfied"

[[record]]
compound = "Cc1c(S(=O)(=O)O)oc2c1C(=O)C(=O)c1c-2ccc2c1CCCC2(C)C"
classification = "Satisfied"

[[record]]
compound = "C[N+]1(C)C2CC(OC(=O)[C@@H](CO)c3ccccc3)CC1C1OC12 (stereo partly specified)"
classification = "Satisfied"

[[record]]
compound = "C=CCCCCCCCCCCCC(O)CC(O)COC(C)=O (stereo unspecified) (tested in a mixture with another compound)"
classification = "Satisfied"

[[record]]
compound = "Cc1coc2c1C(=O)C(=O)c1c-2ccc2c1CCCC2(C)C"
classification = "Satisfied"

[[record]]
compound = "CCCCNc1ccc(C(=O)OCCN(C)C)cc1"
classification = "Not satisfied"

[[record]]
compound = "C[C@H]1COC2=C1C(=O)C(=O)c1c2ccc2c1CCCC2(C)C"
classification = "Satisfied"


====

Assay: chemical genetic growth profiling, strain panel (AID 1159580);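 also: tested at 20 µM; growth read once vehicle control cultures reached saturation at 30 °C; 1 = growth at the plate median or of vehicle wells; lower values mean less growth of the strain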
Settings: S. cerevisiae deletion strains, growth OD, locus YBR171W, strain sec66, active compounds read low
Structures can show the parent of a compound that is named as a salt. The whole screen tested about 5,500 compounds, of which about 2,000 (36%) were called active. Not shown: some 18% with an inconclusive outcome. Some of the results follow. Where a SMILES comes first, the peptide text is derived from it. The star is where a group is joined. Tfa = O=C(C(F)(F)F)*
Attribute: normalized growth
observationType: normalized growth

[[record]]
compound = "Nc1ccc(N=Nc2ccccc2)c(N)n1"
numericresult = 0.96

[[record]]
compound = "CC(C)COCC(CN(Cc1ccccc1)c1ccccc1)N1CCCC1 (configuration not stated)"
numericresult = 1.06

[[record]]
compound = "CC(=O)OCC[C@H](C)CCC=C(C)C"
numericresult = 0.983

[[record]]
compound = "C=C1CCC2C(CC2(C)C)C(=C)CC/C1=N\\O (configuration not stated)"
numericresult = 0.993

[[record]]
compound = "CC[C@H](C)C(=O)O[C@H]1CCC=C2C=C[C@H](C)C(CCC3C[C@@H](O)CC(=O)O3)[C@H]21 (some centres not stated)"
numericresult = 1.02

[[record]]
compound = "CC(C)NNC(=O)c1ccncc1"
numericresult = 1.01

[[record]]
compound = "Cc1cc(-c2ccccc2)nnc1NCCN1CCOCC1"
numericresult = 0.977

[[record]]
compound = "CCC(C)C(=O)O[C@H]1C[C@H](O)C=C2C=C[C@H](C)[C@H](CC[C@@H](O)C[C@@H](O)CC(=O)O)C21 (some centres not stated)"
numericresult = 1

[[record]]
compound = "CC(C)C(NC(=O)C(Cc1ccc(O)cc1)NC(=O)C(NC(=O)C(F)(F)F)C(C)C)C(=O)O (stereo not drawn) (Tfa-Val-Tyr-Val-OH; configuration not given here)"
numericresult = 0.976

[[record]]
compound = "OCCOCCN1CCN(C2=Nc3ccccc3Sc3ccccc32)CC1"
numericresult = 1

[[record]]
compound = "CC(C)C(C)/C=C/C(C)C1CCC2C3=CC=C4CC(O)CCC4(C)C3CCC21C (configuration not stated)"
numericresult = 1.01

[[record]]
compound = "C[C@H]1CC[C@@H](C(C)(C)O)CC2=C1CC[C@@H]2C"
numericresult = 0.978

[[record]]
compound = "COC(=O)C(O)c1ccccc1 (configuration not stated)"
numericresult = 0.99

[[record]]
compound = "COc1ccc(-c2coc3cc(OC)cc(OC)c3c2=O)cc1"
numericresult = 0.994

[[record]]
compound = "C=C1CCC(C2CC(=O)OC2=O)C(=O)CCC2C1CC2(C)C (configuration not stated)"
numericresult = 1

[[record]]
compound = "CC(C)C(C)/C=C/C(C)[C@H]1CCC2C3=CCC4CC(=O)CC[C@]4(C)C3CC[C@@]21C (some centres not stated)"
numericresult = 0.986

[[record]]
compound = "CCC(C)(C)C(=O)O[C@H]1C[C@@H](C)C=C2C=C[C@H](C)[C@H](CC[C@@H]3C[C@@H](O)CC(=O)O3)[C@H]21"
numericresult = 0.998

[[record]]
compound = "COc1cc(-c2coc3cc(OC)c(OC)c(OC)c3c2=O)cc(OC)c1OC"
numericresult = 0.99

[[record]]
compound = "COC(=O)C(C)c1ccc(C(=O)c2cccs2)cc1 (configuration not stated)"
numericresult = 1.01

[[record]]
compound = "CC1C[C@H]2CC(=O)[C@H]3CCCN4CCC[C@H]2[C@]34C1 (some centres not stated)"
numericresult = 0.996

[[record]]
compound = "O=C1OC2(c3ccc(O)cc3Oc3cc(O)ccc32)c2ccccc21"
numericresult = 1.04

[[record]]
compound = "C=C1CCC2C(CC2(C)C)C(=O)CCC1O (configuration not stated)"
numericresult = 1

